Target Or System: TLR9 (Homo sapiens)
Construct: expressed in transfected cells; host or cells: HEK293
Sequence (Q9NR96 26-1032): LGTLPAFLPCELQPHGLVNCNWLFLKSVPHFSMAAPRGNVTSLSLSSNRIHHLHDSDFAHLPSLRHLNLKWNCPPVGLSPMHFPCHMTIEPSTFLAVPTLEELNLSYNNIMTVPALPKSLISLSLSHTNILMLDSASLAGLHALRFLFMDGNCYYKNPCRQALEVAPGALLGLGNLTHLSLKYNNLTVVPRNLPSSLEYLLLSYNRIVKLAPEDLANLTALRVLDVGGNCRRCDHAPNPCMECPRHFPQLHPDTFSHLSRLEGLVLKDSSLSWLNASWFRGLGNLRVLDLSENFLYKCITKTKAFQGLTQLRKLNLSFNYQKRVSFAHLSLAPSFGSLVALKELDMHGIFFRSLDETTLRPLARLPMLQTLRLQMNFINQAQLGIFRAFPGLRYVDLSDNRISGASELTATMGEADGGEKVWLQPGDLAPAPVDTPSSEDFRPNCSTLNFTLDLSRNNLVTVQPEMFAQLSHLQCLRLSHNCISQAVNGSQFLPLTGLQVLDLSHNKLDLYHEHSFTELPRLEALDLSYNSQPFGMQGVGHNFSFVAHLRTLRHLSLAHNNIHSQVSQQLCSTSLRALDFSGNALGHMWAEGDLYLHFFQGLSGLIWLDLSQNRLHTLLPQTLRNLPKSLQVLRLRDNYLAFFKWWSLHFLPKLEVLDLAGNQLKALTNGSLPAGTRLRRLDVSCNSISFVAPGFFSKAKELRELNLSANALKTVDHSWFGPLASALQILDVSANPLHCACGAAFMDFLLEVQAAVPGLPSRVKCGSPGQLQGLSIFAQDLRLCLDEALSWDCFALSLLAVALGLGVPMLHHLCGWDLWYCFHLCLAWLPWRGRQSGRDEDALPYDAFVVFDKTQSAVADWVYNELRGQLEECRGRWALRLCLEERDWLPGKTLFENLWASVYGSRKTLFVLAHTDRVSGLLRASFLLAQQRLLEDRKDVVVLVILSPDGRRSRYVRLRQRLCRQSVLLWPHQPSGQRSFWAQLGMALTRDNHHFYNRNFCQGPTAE
Assay Protocol: TLR9 screening of (+)-morphinan library, SEAP reporter in HEK293 cells expressing TLR9
Type: cell-based
Recorded Conditions: 10 μM; activator ODN2006; control (no activator) 0.14, activator 1.42 OD
# OD 650 nm (mean ± sd) per entry

> print(dat)
                                   compound         property.label  measured.result
1  C=CCN1CC[C@@]23c4c5ccc(OC)c4O[C@@H]2C(=C)CC[C@@H]3[C@@H]1C5  OD 650 nm (mean ± sd)   0.75 ± 0.06 OD
2  COc1ccc2c3c1O[C@@H]1C(=O)CC[C@@H]4[C@H](C2)N(C(=O)C2CC2)CC[C@@]314 [II-57]  OD 650 nm (mean ± sd)   1.15 ± 0.03 OD
3  COc1ccc2c3c1O[C@@H]1C(OC(C)=O)=CC[C@]4(O)[C@H](C2)N(C(C)=O)CC[C@@]314  OD 650 nm (mean ± sd)   1.11 ± 0.09 OD
4  COc1ccc2c3c1O[C@@H]1C4(CCC5[C@H](C2)N(CC2CC2)CC[C@]351)OCCO4 (stereo partly shown)  OD 650 nm (mean ± sd)   1.42 ± 0.07 OD
5  CN(C(=O)/C=C/c1ccoc1)[C@H]1CC[C@]2(O)[C@@H]3Cc4ccc(O)c5c4[C@]2(CC[N+]3([O-])CC2CC2)[C@@H]1O5 (stereo partly shown)  OD 650 nm (mean ± sd)   0.13 ± 0.01 OD

Using the record for C=CCN1CC[C@@]23c4c5c(Br)cc(OC)c4O[C@@H]2C(=O)CCC3C1C5 (stereo partly shown) , report its OD 650 nm (mean ± sd). 1.24 ± 0.11 OD

How about this compound: `O=C1CC[C@@H]2[C@@H]3Cc4ccc(O)c5c4[C@]2(CCN3)[C@@H]1O5` 1.22 ± 0.07 OD

Likewise for C=CCN1CC[C@@]23c4c5ccc(OC)c4OC2C(OC(C)=O)CC[C@@H]3C1C5 (single isomer, unassigned) [II-94a] ? 1.16 ± 0.08 OD

Please do the same for `COC1=CC=C2[C@@H]3Cc4ccc(OC)c5c4[C@]2(CCN3CC2CC2)[C@@H]1O5` as well. 0.14 ± 0.01 OD

Record: COc1ccc2c(c1OCc1ccccc1)[C@@]13CCN[C@@H](C2)[C@H]1CC(OC)C(=O)C3 (stereo partly shown) 0.19 ± 0.02 OD

Continue with COC1=C[C@@H]2[C@@H]3Cc4ccc(OC)c(O)c4[C@]2(CCN3C)CC1O (stereo partly shown) 0.12 ± 0.01 OD

Now the same for `COc1ccc2c(c1)CCN[C@@H]2Cc1ccc(OC)c(O)c1` 0.67 ± 0.01 OD

Field entry: `C=CCN1CC[C@@]23c4c5ccc(OC)c4O[C@@H]2C(=O)CC[C@]3(O)[C@@H]1C5` 0.78 ± 0.07 OD
